EXPERIMENTAL_TARGET: Human Cav2.2 channels (Homo sapiens)
Construct: expressed in transfected cells
Sequence (Q00975 whole entry): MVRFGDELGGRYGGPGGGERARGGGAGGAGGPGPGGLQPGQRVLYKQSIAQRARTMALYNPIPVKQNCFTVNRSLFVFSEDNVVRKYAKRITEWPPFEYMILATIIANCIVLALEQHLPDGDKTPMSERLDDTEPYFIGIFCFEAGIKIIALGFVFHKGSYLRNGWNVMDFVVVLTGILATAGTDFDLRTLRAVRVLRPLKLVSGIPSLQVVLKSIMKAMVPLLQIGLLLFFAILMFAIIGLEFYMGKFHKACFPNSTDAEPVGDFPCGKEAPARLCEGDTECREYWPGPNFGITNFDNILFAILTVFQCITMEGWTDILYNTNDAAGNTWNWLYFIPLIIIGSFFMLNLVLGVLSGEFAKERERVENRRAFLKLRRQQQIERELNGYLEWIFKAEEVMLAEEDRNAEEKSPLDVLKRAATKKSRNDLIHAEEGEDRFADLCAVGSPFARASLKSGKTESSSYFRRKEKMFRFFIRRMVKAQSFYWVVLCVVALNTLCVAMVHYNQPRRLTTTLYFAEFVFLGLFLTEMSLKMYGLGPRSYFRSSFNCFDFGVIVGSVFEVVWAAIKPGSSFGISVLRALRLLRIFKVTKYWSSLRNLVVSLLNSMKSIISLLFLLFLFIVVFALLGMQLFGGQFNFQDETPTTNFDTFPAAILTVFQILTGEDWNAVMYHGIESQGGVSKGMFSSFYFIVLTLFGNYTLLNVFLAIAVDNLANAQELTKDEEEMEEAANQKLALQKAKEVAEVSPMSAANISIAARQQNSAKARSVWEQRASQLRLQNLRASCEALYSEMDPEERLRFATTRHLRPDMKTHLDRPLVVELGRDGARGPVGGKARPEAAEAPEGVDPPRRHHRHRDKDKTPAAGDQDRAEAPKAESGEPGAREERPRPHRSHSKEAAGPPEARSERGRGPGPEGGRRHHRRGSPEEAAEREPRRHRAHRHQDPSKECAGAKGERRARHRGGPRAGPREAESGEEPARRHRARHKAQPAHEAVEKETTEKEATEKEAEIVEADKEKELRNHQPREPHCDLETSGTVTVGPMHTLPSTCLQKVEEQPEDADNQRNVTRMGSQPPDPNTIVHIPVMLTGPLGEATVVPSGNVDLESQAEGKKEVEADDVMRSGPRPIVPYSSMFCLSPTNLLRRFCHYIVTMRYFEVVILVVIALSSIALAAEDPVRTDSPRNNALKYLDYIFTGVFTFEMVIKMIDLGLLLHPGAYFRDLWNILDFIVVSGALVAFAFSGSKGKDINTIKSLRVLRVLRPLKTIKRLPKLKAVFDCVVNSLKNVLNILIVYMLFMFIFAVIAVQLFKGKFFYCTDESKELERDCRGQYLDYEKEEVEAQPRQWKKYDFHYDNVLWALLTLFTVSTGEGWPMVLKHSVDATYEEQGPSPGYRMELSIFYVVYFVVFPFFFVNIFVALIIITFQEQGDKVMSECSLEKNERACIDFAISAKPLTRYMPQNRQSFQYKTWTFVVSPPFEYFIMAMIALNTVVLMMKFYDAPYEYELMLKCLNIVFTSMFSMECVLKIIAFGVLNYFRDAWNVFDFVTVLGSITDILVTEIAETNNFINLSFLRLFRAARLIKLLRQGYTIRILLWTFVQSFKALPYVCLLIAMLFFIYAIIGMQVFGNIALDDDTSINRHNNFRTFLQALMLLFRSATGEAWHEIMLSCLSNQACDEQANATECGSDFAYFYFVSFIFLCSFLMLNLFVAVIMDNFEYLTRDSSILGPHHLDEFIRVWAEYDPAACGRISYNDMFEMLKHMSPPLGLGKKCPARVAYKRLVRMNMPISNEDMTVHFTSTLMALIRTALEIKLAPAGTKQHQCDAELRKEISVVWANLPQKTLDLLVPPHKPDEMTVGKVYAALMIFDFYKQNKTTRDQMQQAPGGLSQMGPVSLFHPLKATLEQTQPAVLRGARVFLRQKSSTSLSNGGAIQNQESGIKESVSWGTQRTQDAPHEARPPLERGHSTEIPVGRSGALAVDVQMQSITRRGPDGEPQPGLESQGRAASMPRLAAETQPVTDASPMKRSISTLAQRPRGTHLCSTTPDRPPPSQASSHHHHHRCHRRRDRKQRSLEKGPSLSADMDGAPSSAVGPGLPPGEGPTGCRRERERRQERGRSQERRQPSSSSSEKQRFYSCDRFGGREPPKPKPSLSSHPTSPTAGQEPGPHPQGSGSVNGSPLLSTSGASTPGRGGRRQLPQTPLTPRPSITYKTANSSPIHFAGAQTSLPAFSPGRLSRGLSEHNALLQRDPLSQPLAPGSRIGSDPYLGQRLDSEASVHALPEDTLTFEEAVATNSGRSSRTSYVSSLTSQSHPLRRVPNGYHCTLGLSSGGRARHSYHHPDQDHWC
Sequence (P54289 25-1103 partner): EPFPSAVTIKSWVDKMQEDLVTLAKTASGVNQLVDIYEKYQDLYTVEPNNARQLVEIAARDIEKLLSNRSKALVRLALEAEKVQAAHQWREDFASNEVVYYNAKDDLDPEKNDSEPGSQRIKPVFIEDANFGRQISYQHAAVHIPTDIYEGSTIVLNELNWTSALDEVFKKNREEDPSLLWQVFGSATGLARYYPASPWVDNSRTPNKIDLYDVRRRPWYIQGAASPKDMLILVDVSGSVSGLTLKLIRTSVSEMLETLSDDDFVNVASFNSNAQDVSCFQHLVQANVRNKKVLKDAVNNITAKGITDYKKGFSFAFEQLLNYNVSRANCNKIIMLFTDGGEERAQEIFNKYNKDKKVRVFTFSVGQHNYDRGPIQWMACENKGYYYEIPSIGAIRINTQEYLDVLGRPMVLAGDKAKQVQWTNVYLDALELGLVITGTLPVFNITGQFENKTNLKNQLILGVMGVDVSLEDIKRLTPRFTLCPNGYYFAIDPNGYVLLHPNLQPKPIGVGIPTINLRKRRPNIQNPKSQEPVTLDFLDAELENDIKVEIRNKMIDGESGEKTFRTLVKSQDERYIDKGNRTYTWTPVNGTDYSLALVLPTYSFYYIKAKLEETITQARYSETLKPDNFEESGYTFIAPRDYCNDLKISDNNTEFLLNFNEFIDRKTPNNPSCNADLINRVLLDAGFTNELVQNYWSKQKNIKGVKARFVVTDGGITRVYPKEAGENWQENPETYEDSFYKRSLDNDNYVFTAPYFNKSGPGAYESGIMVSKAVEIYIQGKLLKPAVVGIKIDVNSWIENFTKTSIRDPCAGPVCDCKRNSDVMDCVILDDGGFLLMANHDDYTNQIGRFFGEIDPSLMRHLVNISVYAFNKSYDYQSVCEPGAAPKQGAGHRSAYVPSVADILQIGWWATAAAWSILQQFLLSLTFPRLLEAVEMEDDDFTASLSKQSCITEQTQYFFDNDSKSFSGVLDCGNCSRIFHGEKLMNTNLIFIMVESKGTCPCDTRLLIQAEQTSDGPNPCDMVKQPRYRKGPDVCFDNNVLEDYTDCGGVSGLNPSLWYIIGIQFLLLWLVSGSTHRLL
Sequence (P54284 whole entry partner): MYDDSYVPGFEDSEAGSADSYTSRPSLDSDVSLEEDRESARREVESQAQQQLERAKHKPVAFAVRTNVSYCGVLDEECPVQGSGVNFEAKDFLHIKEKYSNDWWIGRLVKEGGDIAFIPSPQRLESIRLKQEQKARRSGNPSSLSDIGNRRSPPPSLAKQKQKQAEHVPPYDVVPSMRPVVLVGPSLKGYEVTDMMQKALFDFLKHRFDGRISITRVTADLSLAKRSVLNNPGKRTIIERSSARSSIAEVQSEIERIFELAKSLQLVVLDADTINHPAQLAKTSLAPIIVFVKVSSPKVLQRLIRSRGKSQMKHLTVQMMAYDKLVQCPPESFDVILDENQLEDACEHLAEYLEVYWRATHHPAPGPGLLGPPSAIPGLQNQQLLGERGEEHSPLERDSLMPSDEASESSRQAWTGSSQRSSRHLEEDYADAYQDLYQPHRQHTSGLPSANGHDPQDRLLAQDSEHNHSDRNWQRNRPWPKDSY
ASSAY_NAME: Fluorescent assay for Cav2.2 channels using potassium depolarization to initiate channel opening
Assay type: cell-based
MEASUREMENT_SETUP: 30 μM compound; read-out: Cav 2.2 Activity % Inh at 30 μM
VALUE_TYPE: inhibition at 30 µM (%)

a = Cc1cc(CNC(=O)C2(NC(=O)c3cc(C(C)(C)C)cc(C(C)(C)C)c3)CCCCC2)nn1C
b = COc1ccc(CNC(=O)C2(NC(=O)c3cc(C(C)(C)C)c(O)c(C(C)(C)C)c3)CC2)cc1
Incoming: Between a and b , whose measured inhibition at 30 µM reads higher? Pick one and reply with its label.
Outgoing: a
